Data provenance: paper PMC4041848

- Test system: aryl hydrocarbon receptor AhR
- method-description: AhR gene reporter assay, agonist mode
- experimental-parameters: AZ-AHR cells, 24 h; compared to 5 nM TCDD; calculated at 100 µM compound (stated for omeprazole)
reported-metric: AhR agonist efficacy (%)
All answers are understood in %, so give the number only.

// known answers, use as guide
| compound | recorded-value |
| --- | --- |
| Cc1c(OCC(F)(F)F)ccnc1C[S@@+]([O-])c1nc2ccccc2[nH]1 | 23.0 |
| COc1ccc2[nH]c([S+]([O-])Cc3ncc(C)c(OC)c3C)nc2c1 (racemic) | 51.4 |
| COc1ccc2nc([S@@+]([O-])Cc3ncc(C)c(OC)c3C)[nH]c2c1 | 44.8 |

[Q] Give a short answer stating reported AhR agonist efficacy for Cc1c(OCC(F)(F)F)ccnc1C[S+]([O-])c1nc2ccccc2[nH]1 (racemic) .
[A] 22.8

[Q] Identify measured AhR agonist efficacy corresponding to Cc1c(OCC(F)(F)F)ccnc1C[S@+]([O-])c1nc2ccccc2[nH]1
[A] 26.3
